- TARGET OR TEST SYSTEM: Alpha-1B adrenergic receptor (Homo sapiens)
- Sequence (P35368 whole entry): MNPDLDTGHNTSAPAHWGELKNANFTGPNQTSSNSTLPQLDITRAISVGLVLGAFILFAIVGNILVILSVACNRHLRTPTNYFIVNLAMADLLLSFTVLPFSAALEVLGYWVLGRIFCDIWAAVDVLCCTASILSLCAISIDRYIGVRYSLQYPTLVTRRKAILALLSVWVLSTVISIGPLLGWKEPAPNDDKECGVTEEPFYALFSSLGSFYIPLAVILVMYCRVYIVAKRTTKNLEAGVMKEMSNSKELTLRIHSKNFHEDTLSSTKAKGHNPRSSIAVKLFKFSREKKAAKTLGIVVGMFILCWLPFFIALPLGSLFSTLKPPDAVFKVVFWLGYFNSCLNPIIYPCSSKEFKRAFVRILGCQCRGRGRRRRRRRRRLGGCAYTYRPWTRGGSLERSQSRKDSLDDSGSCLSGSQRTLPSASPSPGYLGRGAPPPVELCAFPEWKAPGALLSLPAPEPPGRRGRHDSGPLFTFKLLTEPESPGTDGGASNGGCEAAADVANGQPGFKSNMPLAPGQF
- TEST DESCRIPTION: In vitro binding affinity at human Alpha-1B adrenergic receptor.
RESULT TYPE: Ki (nM)

CHEMICAL STRING	Ki (nM)
CCOc1ccccc1N1CCN(CCn2c(=O)[nH]c3c([nH]c4ccccc43)c2=O)CC1	14.5

a. CC(C)c1ccc(N2CCN(CCn3c(=O)[nH]c4c([nH]c5ccccc54)c3=O)CC2)cc1
b. O=c1[nH]c2c([nH]c3ccccc32)c(=O)n1CCN1CCN(c2ccccc2Cl)CC1
Q: Between item a and item b , which reported Ki is smaller? Indicate your choice by writing its label.
A: b
(b: 2.57 nM, a: 9550 nM)

---

- TARGET OR TEST SYSTEM: UniProt:P25100
- TEST DESCRIPTION: In vitro binding affinity at human Alpha-1D adrenergic receptor.
RESULT TYPE: Ki (nM)

CHEMICAL STRING	UNIT DESCRIPTOR	Ki
C[C@H](CN1CCN(c2cc(F)c(F)cc2F)CC1)N1C(=O)CC2(CCCC2)CC1=O	nM	1.6

a. COc1ccccc1N1CCN(CCn2nc(-c3ccccc3)c3c(C)onc3c2=O)CC1
b. COc1cc2c(cc1O)CCN1Cc3c(ccc(O)c3OC)C[C@@H]21
c. COc1ccccc1N1CCN(Cn2nc(-c3ccccc3)c3c(C)onc3c2=O)CC1
Q: Ordering: ascending Ki. Reply with the item labels sorted in the order that was asked for.
A: a, b, c
(a: 1.5 nM, b: 25 nM, c: 316 nM)

---

- TARGET OR TEST SYSTEM: Alpha-1D adrenergic receptor (Homo sapiens)
- Sequence (P25100 whole entry): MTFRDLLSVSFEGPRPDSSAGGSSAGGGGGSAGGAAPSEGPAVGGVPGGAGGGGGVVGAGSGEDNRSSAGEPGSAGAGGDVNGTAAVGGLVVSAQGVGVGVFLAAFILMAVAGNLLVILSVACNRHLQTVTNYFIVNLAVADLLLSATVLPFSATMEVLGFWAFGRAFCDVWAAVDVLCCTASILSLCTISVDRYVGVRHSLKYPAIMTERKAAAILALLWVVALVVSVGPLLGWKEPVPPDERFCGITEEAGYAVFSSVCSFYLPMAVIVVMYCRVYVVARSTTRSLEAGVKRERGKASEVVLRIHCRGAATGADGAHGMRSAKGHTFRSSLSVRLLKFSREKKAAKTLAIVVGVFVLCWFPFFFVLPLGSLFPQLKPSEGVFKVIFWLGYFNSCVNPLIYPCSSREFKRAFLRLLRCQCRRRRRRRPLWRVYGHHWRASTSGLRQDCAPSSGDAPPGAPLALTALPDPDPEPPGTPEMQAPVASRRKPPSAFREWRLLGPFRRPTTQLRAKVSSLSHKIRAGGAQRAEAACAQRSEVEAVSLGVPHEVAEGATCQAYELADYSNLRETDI
- TEST DESCRIPTION: Binding affinity towards Alpha-1D adrenergic receptor
pKi: −log10 of the molar value.
RESULT TYPE: pKi

Examples with their reported pKi follow.
COMPOUND	pKi
CCOc1ccccc1N1CCN(CCn2c(=O)[nH]c3c([nH]c4ccccc43)c2=O)CC1	8.80
COc1ccccc1N1CCN(CCCn2cnc3c4ccccc4nc-3c2O)CC1	7.79
CC(C)c1ccc(N2CCN(CCn3c(=O)[nH]c4c([nH]c5ccccc54)c3=O)CC2)cc1	7.45
O=c1[nH]c2c([nH]c3ccccc32)c(=O)n1CCN1CCN2c3ccccc3OCC2C1 (stereo unspecified)	6.90

I. N#CCc1ccc(N2CCN(CCn3c(=O)[nH]c4c([nH]c5ccccc54)c3=O)CC2)cc1
II. CCC(C)c1ccc(N2CCN(CCn3c(=O)[nH]c4c([nH]c5ccccc54)c3=O)CC2)cc1 (stereo unspecified)
Q: Between item I and item II , which reported pKi is smaller? Indicate your choice by writing its label.
A: II

A. COc1ccccc1N1CCN(CCCn2c(C)nc3c4ccccc4nc-3c2O)CC1
B. CC(C)c1ccc(N2CCN(CCn3c(=O)[nH]c4c(sc5ccccc54)c3=O)CC2)cc1
C. COc1ccccc1C1CCN(CCn2c(=O)[nH]c3c([nH]c4ccccc43)c2=O)CC1
D. Cc1nc2c3ccccc3nc-2c(O)n1CCN1CCN(c2ccc(C(C)C)cc2)CC1
E. CCCCc1ccc(N2CCN(CCn3c(=O)[nH]c4c([nH]c5ccccc54)c3=O)CC2)cc1
Q: Rank entries according to their pKi, from the largest number down. Reply with the item labels sorted in the order that was asked for.
A: C, A, B, E, D
(C: 9.03, A: 8.59, B: 6.90, E: 6.61, D: 5.77)

1. COc1ccccc1N1CCN(CCn2cnc3c4ccccc4nc-3c2O)CC1
2. O=c1[nH]c2c([nH]c3ccccc32)c(=O)n1CCN1CCN(c2ccccc2Cl)CC1
3. CCc1nc2c3ccccc3nc-2c(O)n1CCN1CCN(c2ccccc2OC)CC1
Q: Ordering: ascending pKi. Reply with the item labels sorted in the order that was asked for.
A: 3, 2, 1
(3: 8.16, 2: 8.44, 1: 9.14)

The reported numbers originate from ChEMBL document CHEMBL1145826.
